Just for reference, patent US20050282743A1 is where these values come from.

# system under test: T1, GST-TIP1 PDZ domain 1 (Table 9 insert) (Homo sapiens (Human)), O14907
# T1 chain: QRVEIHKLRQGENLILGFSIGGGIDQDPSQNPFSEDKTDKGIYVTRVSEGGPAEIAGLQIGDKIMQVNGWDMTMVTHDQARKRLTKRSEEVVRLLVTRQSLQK
# test: G assay titration, PDZ 5 ug/ml
reported endpoint: Kd (µM)
// units = µM; emit number, no label

Q: What measured Kd goes with AWDDSARAAGGQGLHVTAL (modifications not checked) [LPAP] ?
Result: 5
